Biological target: GDP-loaded KRAS-G12D (Homo sapiens, UniProt P01116, G12D)
Sequence (P01116 1-188 isoform P01116-2 G12D): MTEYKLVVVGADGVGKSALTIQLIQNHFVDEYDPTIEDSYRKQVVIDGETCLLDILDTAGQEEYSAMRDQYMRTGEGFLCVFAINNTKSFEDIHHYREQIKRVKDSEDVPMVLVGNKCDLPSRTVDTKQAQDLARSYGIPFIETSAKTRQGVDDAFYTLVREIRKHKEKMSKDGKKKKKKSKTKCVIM
Test: KRAS (GDP) biochemical TR-FRET probe displacement assay, G12D
Conditions: 2 hours
Readout Name: IC50 (nM)

• C[C@H]1Cc2nc(-c3cc(N)cc4ccc(F)c(Cl)c34)c(F)c3nc(OCC45CCCN4CCC5)nc(c23)N2C[C@@]3(F)CC[C@](F)(N3)[C@H]12 = 7.83
• C/C=C\c1c(Cl)cc2[nH]ncc2c1-c1nc2c3c(nc(OCC45CCCN4CCC5)nc3c1F)N1C[C@@]3(F)CC[C@](F)(N3)[C@H]1CCC2 = 6.69
• C[C@H]1Cc2nc(-c3cc(N)cc4ccc(F)c(F)c34)c(F)c3nc(OCC45CCCN4CCC5)nc(c23)N2C[C@@]3(F)CC[C@](F)(N3)[C@H]12 = 16

Origin of values: patent US20250042922A1
